Taken from PubChem BioAssay (NCI).

Test system: DMS 273 small cell lung
experiment: NCI tumour cell line growth inhibition, 48 h
Measured TGI of individual entries

{"compound": "O=c1cc(-c2c[nH]c3ccccc23)[nH]c2cc3c(cc12)OCO3", "target desc": "DMS 273 small cell lung", "TGI": "> 100 µM"}
{"compound": "O=C(/C=C/c1ccco1)c1ccc(NCc2nc3ccccc3[nH]2)cc1", "target desc": "DMS 273 small cell lung", "TGI": "35.8 µM"}
{"compound": "CCCCCCCCCCCCCCCCNCCCN(C)CCCN", "target desc": "DMS 273 small cell lung", "TGI": "34.8 µM"}
{"compound": "Cc1cccc(C(C)C)c1N1C(=O)C(=O)C(c2nc3ccccc3o2)C(=O)C1=O", "target desc": "DMS 273 small cell lung", "TGI": "> 100 µM"}
{"compound": "CCN(CC)c1ccc(N=Nc2ccc([N+](=O)[O-])cc2OC(=O)/C=C/c2ccccc2)c(OC(=O)/C=C/c2ccccc2)c1", "target desc": "DMS 273 small cell lung", "TGI": "> 100 µM"}

Now look at this entry.
Query O=C1C2=C(c3ccccc31)C(c1ccccc1)N1C(=O)CSC1=N2 (stereo unspecified) yields TGI of > 100 µM
